Item-by-item account of BMPRIb binding (relative to wild type = 1.0)
- target of assay: T1, BMPRIb receptor-Fc fusion (UniProt O00238 14-126)
- T1 construct: BMP receptor-Fc fusion used at 5 ug/mL; also called ALK-6
- T1 sequence (looked up): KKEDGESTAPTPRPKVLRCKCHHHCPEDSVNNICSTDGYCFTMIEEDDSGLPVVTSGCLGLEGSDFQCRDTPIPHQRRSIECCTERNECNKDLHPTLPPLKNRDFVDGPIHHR
- assay remarks: ELISA-like plate assay, captured BMP-7 from conditioned media, receptor-Fc detection

[in] Reported BMPRIb binding (relative to wild type = 1.0), binder BMP-7 variant F93A (ligand, In conditioned media; numbering on mature BMP-7) STGGKQRSQNRSKTPKNQEALRMASVAENSSSDQRQACKKHELYVSFRDLGWQDWIIAPEGYAAYYCEGECAFPLNSYMNATNHAIVQTLVHAINPETVPKPCCAPTQLNAISVLYFDDSSNVILKKYRNMVVRACGCH : ____
[out] 0.24 relative to wild type

[in] Reported BMPRIb binding (relative to wild type = 1.0), binder BMP-7 variant V26E (ligand, In conditioned media; numbering on mature BMP-7) STGGKQRSQNRSKTPKNQEALRMASEAENSSSDQRQACKKHELYVSFRDLGWQDWIIAPEGYAAYYCEGECAFPLNSYMNATNHAIVQTLVHFINPETVPKPCCAPTQLNAISVLYFDDSSNVILKKYRNMVVRACGCH : ____
[out] 1.38 relative to wild type

[in] Reported BMPRIb binding (relative to wild type = 1.0), binder BMP-7 variant I86D (ligand, In conditioned media; numbering on mature BMP-7) STGGKQRSQNRSKTPKNQEALRMASVAENSSSDQRQACKKHELYVSFRDLGWQDWIIAPEGYAAYYCEGECAFPLNSYMNATNHADVQTLVHFINPETVPKPCCAPTQLNAISVLYFDDSSNVILKKYRNMVVRACGCH : ____
[out] 1.18 relative to wild type

[in] Reported BMPRIb binding (relative to wild type = 1.0), binder BMP-7 variant V26N (ligand, In conditioned media; numbering on mature BMP-7) STGGKQRSQNRSKTPKNQEALRMASNAENSSSDQRQACKKHELYVSFRDLGWQDWIIAPEGYAAYYCEGECAFPLNSYMNATNHAIVQTLVHFINPETVPKPCCAPTQLNAISVLYFDDSSNVILKKYRNMVVRACGCH : ____
[out] 1.43 relative to wild type

[in] Reported BMPRIb binding (relative to wild type = 1.0), binder BMP-7 variant W55A (ligand, In conditioned media; numbering on mature BMP-7) STGGKQRSQNRSKTPKNQEALRMASVAENSSSDQRQACKKHELYVSFRDLGWQDAIIAPEGYAAYYCEGECAFPLNSYMNATNHAIVQTLVHFINPETVPKPCCAPTQLNAISVLYFDDSSNVILKKYRNMVVRACGCH : ____
[out] 0.23 relative to wild type

[in] Reported BMPRIb binding (relative to wild type = 1.0), binder BMP-7 variant Q53R (ligand, In conditioned media; numbering on mature BMP-7) STGGKQRSQNRSKTPKNQEALRMASVAENSSSDQRQACKKHELYVSFRDLGWRDWIIAPEGYAAYYCEGECAFPLNSYMNATNHAIVQTLVHFINPETVPKPCCAPTQLNAISVLYFDDSSNVILKKYRNMVVRACGCH : ____
[out] 1.41 relative to wild type

[in] Reported BMPRIb binding (relative to wild type = 1.0), binder BMP-7 variant L90T (ligand, In conditioned media; numbering on mature BMP-7) STGGKQRSQNRSKTPKNQEALRMASVAENSSSDQRQACKKHELYVSFRDLGWQDWIIAPEGYAAYYCEGECAFPLNSYMNATNHAIVQTTVHFINPETVPKPCCAPTQLNAISVLYFDDSSNVILKKYRNMVVRACGCH : ____
[out] 0.64 relative to wild type

FYI, the data here is from patent US20060058231A1.
